molecular target: Integrin alpha-L (Homo sapiens); format: functional; set-up: mode of action Negative control for BI-1950, recommended concentration 100 nM
Sequence (P20701 whole entry): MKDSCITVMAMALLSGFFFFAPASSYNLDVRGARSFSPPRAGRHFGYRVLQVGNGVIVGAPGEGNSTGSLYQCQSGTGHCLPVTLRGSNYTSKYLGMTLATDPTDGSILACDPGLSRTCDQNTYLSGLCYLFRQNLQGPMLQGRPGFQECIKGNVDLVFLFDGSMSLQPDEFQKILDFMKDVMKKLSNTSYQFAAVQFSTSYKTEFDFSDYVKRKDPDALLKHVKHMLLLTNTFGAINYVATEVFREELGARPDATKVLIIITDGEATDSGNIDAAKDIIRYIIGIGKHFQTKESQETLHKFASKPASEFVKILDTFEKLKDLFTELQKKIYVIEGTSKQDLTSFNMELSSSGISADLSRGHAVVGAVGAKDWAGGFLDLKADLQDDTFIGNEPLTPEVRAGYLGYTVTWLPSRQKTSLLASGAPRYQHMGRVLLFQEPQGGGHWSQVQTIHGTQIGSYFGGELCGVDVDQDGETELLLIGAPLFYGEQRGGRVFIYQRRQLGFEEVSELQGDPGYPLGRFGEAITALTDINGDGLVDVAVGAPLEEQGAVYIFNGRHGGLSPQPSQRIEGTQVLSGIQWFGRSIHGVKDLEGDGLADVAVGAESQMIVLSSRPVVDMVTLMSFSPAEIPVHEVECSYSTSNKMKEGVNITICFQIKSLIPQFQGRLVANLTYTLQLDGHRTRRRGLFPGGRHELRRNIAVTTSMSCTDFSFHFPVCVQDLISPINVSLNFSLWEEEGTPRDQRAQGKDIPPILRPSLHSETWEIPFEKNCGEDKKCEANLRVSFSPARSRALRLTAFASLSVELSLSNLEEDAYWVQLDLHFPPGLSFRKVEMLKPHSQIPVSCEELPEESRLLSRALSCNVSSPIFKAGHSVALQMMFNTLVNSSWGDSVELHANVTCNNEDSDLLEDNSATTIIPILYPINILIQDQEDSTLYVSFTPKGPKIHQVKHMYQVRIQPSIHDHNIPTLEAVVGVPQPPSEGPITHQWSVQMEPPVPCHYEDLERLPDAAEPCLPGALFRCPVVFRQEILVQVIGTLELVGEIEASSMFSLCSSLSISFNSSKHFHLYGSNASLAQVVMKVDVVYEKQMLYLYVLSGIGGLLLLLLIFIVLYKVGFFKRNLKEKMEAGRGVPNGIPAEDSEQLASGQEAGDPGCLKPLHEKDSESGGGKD
quantity.name: IC50

>>> print(df.to_string())
                                   molecule                      system_name  test_value
0  C[C@@]1(Cc2ccc(C#N)cc2)C(=O)N(c2cc(Cl)cc(Cl)c2)c2ncc(C(=O)NC3(c4nc(C5CCC5)no4)CC3)n21 [BI 9446]  Integrin alpha-L (Homo sapiens)   > 1000 nM

---

biological target: UniProtKB Q4FZB7; test: Affinity Phenotypic Cellular interaction (Western Blot (decrease in di-methylation of H4K20me in U20S cells)) EUB0000193b SUV420H1
Sequence (Q4FZB7 whole entry): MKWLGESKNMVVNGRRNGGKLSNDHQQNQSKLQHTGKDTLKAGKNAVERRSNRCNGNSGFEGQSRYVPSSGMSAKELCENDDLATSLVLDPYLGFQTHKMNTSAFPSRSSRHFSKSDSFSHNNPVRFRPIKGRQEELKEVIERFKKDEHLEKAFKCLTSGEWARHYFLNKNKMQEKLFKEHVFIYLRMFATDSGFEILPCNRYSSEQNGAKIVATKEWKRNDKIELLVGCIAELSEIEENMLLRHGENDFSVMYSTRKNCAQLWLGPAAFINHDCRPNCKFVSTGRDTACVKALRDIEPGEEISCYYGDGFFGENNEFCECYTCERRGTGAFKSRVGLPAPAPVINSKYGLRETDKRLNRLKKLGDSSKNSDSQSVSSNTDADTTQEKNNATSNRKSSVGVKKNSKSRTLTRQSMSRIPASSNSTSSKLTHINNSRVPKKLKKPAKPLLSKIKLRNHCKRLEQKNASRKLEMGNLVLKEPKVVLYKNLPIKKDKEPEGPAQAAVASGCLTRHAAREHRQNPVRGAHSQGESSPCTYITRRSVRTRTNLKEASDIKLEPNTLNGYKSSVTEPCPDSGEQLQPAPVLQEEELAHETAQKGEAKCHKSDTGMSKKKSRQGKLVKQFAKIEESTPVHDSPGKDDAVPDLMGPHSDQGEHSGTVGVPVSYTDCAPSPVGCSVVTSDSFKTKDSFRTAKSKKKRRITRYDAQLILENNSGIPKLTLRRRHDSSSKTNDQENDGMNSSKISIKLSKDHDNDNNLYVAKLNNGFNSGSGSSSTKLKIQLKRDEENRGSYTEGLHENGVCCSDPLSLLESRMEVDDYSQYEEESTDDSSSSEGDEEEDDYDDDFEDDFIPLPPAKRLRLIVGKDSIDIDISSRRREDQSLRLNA
quantity.name: EC50

                              input_smiles  test_value
0  Clc1cc2c(NC3CCCC3)nnc(-c3ccncc3)c2cc1Cl      262 nM
